FYI, the data here is from the supplement of paper PMC12636428.

# Tested on: Saccharomyces cerevisiae
# assay-text: transcriptional activation domain activity (GFP:mCherry ratio, weighted mean of sorted bins, harmonized to initial dataset scale) (arbitrary fluorescence ratio units); higher = stronger transcriptional activation
# conditions-used: beta-estradiol 1 µM; induction time 4 h
measure-name: transcriptional activation domain activity

TRGAPPAPPPPPPPPARPSESGAPPPPPPPPARGAPPPPPPPPPPAGGAPPPP :: 36500
MLVRCPHLILNHKMPVLYLLFYLHIFHSLLLPFCIYASFFSFILFYQIGIFLL :: 48400

For every listed record, write down its transcriptional activation domain activity.
1. MADRGTGAGGEGRGRGGFGRGGRGRGGPRGRGGRGGRGGRKDEEKEWVPVTKL
2. KNNDATIDNELTQILNEYNMNFNDNLGTSTSGKNKSACPSSFDANAMTKINPS
3. VQGTTHGRILIQAGKEIWTQELLLPYVYFILTLNPTIHTWERIKKITGYVFRA
4. WDDILTPADNQHRPSLTNQFLSPRSNYDGTTRSSGIDSNYSDTESNYHTPYLY
5. MIIVLLVKVVVFNLMCKCLMVNVGRCFGEIVSCTFYFWKHILFYYLRSVVTRL
6. AKAAEAVVAPEADAEKAEEAVVEKPKSTKGRKRKADEEDAEEVAAEANGAEAA
7. EEDLWTMTNLFVSPVARSLPCTSLLLCLCSLLVYLLASLTFPYLAFFLVFILF
8. DYSIAQFRFLLKLLLVHGRWNYMRACKYTLGTFWKEMLFYLTQALYQRWNGYT

RESULT:
1: 24800; 2: 51800; 3: 64200; 4: 61600; 5: 37700; 6: 28200; 7: 53000; 8: 64700

Recorded result, GWNTHRAQTYTQLAKHLQSHGFHCKQYLGWLCHNIVAIEVYWMMIHLKRILPL , transcriptional activation domain activity: 56300

----------
# System: Saccharomyces cerevisiae
# assay-text: transcriptional activation domain activity (GFP:mCherry ratio, weighted mean of sorted bins, harmonized to initial dataset scale) (arbitrary fluorescence ratio units); higher = stronger transcriptional activation
# conditions-used: beta-estradiol 1 µM; induction time 4 h
measure-name: transcriptional activation domain activity
Answers are plain numbers.

RRDALRAQQQRDTHARHGAGAARKHGQPVCVRQHRGQLHLSEPVGGAAAAAVH :: 66200
MDKLVQYEHTFLPPPHMQYLSYFDCLENLAHYIDAIHPNNLNMWFFLIYDQCI :: 63300
MHYRYIAGFFFVHTFSCGQGLKDSNLILQCVPLYPQLHPFFLIFLHFFVFLSL :: 70600
PANSSFVYVPMGWTLEVRNDGNPAIYAALLVRALLSRRVCRVGLLKHNTILVH :: 51300
DVGNSVWHVDCCSPYVNGGSGWGFFNAILGWTNSATYGSVISYNLYWLFVIAV :: 51100

For every listed record, write down its transcriptional activation domain activity.
1. GSSAFGASGSSGGAFGQPAAQQQQSAFGGGGGLFGKPQGSSFGSTALATTAGQ
2. MGSNANKRREDGPKKEQLQKRVLHIRSVARSTKGGKIRSSSAIVVVGNGNGVG
3. MLYRVYLDIFFFLYCLFVLGAFQDTRRFLFKFWAFPLLKVWQVVTIHLTCTQY
4. KLEYVSLGRIEIVACFDKYTMASKGIHMLLGCCFSKIKFVCLSQADYQAAVLL
5. MAVIWGLDLKDMQWSKFKGSYMFNNVYHLRKVKMIVYQIAMILCVVSESVGTA
6. MWLVVCIDGPVLSVLPRTILYLCVLLLLTLLASCSERSFAFARPLSSSCIFSY

RESULT:
[55800, 42400, 61800, 67100, 66800, 42600]
